Taken from patent US8952024B2.

# System: Italian ryegrass (Lolium multiflorum)
# assay summary: Test B pre-/postemergence plant response
# Assay type: in vivo
# details: Postemergence, 125 g ai/ha; visual rating after 13 to 15 days, scale 0 (no effect) to 100 (complete control)
Record form. Attribute: Plant response rating, Ryegrass, Italian. Fill in for each entry.
Numbers only.

compound	Plant response rating, Ryegrass, Italian
O=C1CCCC(O)=C1C(=O)c1cnc(-c2cccc(Br)c2)n(-c2ccccc2)c1=O [Compound 69]	50
Cc1ccc(Cl)cc1-n1c(-c2ccccc2)ncc(C(=O)C2=C(O)CCCC2=O)c1=O [Compound 52]	55
CCCCc1ncc(C(=O)C2=C(O)CCCC2=O)c(=O)n1-c1ccccc1C [Compound 62]	50

Give Plant response rating, Ryegrass, Italian for each of the items listed below.
1. Cc1ccc(F)c(-n2c(-c3ccccc3)ncc(C(=O)C3=C(O)CCCC3=O)c2=O)c1 [Compound 51]
2. CCn1c(-c2ccccc2)ncc(C(=O)C2=C(O)CCCC2=O)c1=O [Compound 49]
3. CCCc1ncc(C(=O)C2=C(O)CCCC2=O)c(=O)n1CCC [Compound 72]
4. Cc1cccc(-n2c(-c3ccccc3)ncc(C(=O)C3=C(O)CCCC3=O)c2=O)c1F [Compound 58]
5. O=C1CCCC(O)=C1C(=O)c1cnc(-c2cccc(Cl)c2)n(-c2ccccc2)c1=O [Compound 34]

Output:
1. 10
2. 0
3. 10
4. 30
5. 20

###

For each entry below, report its Plant response rating, Surinam Grass value.
# Tested on: Surinam grass (Brachiaria decumbens)
# assay summary: Test B pre-/postemergence plant response
# Format: in vivo
# details: Preemergence, 125 g ai/ha; scale 0 to 100, 0 no effect, 100 complete control
Answers are plain numbers.

compound	Plant response rating, Surinam Grass
CCCCc1ncc(C(=O)C2=C(O)CCCC2=O)c(=O)n1-c1ccccc1C [Compound 62]	25

# return Plant response rating, Surinam Grass for each item in the list
1. Cc1ccc(Cl)cc1-n1c(-c2ccccc2)ncc(C(=O)C2=C(O)CCCC2=O)c1=O [Compound 52]
2. O=C1CCCC(O)=C1C(=O)c1cnc(-c2cccc(Br)c2)n(-c2ccccc2)c1=O [Compound 69]
3. CCCCn1c(C2CC2)ncc(C(=O)C2=C(O)CCCC2=O)c1=O [Compound 193]
4. O=C1CCCC(O)=C1C(=O)c1cnc(-c2cccs2)n(-c2ccccc2)c1=O [Compound 66]
5. CCc1cccc(-n2c(-c3ccccc3)ncc(C(=O)C3=C(O)CCCC3=O)c2=O)c1 [Compound 220]

Output:
[95, 100, 30, 90, 45]

###

# System: downy bromegrass (Bromus tectorum)
# assay summary: Test B pre-/postemergence plant response
# Type: in vivo
# details: Postemergence, 250 g ai/ha; scale 0 to 100
parameter measured: Bromegrass, Downy plant response rating

Below are worked cases with known answers.
compound	result
Cc1ccc(C)c(-n2c(-c3ccccc3)ncc(C(=O)C3=C(O)CCCC3=O)c2=O)c1 [Compound 29]	45
O=C1CCCC(O)=C1C(=O)c1cnc(-c2ccccc2)n(-c2ccccc2Br)c1=O [Compound 37]	45
CCn1c(-c2ccccc2)ncc(C(=O)C2=C(O)CCCC2=O)c1=O [Compound 49]	5
O=C1CCCC([O-])=C1C(=O)c1cnc(-c2ccccc2)n(-c2ccccc2)c1=O.[K+] [Compound 14]	70

Moving on to another compound below.
Lookup result for Cc1cccc(-n2c(-c3cccc(Cl)c3)ncc(C(=O)C3=C(O)CCCC3=O)c2=O)c1 [Compound 45] ; measured Bromegrass, Downy plant response rating: 50

###

# System: lambsquarters (Chenopodium album)
# assay summary: Test B pre-/postemergence plant response
# Assay type: in vivo
# details: 62 g ai/ha, postemergence; 0 is no effect, 100 is complete control; 13 to 15 days
parameter measured: Lambsquarters plant response rating (0 to 100 scale)
Answers are plain numbers.

molecule	measured number
COCCCn1c(-c2cccc(F)c2)ncc(C(=O)C2=C(O)CCCC2=O)c1=O [Compound 126]	85
COCCn1c(-c2ccsc2)ncc(C(=O)C2=C(O)CCCC2=O)c1=O [Compound 97]	100
O=C1CCCC(O)=C1C(=O)c1cnc(-c2cccc(Br)c2)n(-c2ccccc2)c1=O [Compound 69]	100

Can you give me Lambsquarters plant response rating (0 to 100 scale) for all of these, one by one?
1. COCCCn1c(-c2ccccc2)ncc(C(=O)C2=C(O)CCCC2=O)c1=O [Compound 81]
2. O=C1CCCC(O)=C1C(=O)c1cnc(-c2ccccc2)n(C2CCOCC2)c1=O [Compound 129]
3. CCOCCn1c(-c2ccccc2)ncc(C(=O)C2=C(O)CCCC2=O)c1=O [Compound 96]
4. O=C1CCCC(O)=C1C(=O)c1cnc(-c2cccnc2)n(-c2ccccc2)c1=O [Compound 113]
5. O=C1CCCC(O)=C1C(=O)c1cnc(C2CCCC2)n(-c2ccccc2)c1=O [Compound 92]
6. O=C1CCCC(O)=C1C(=O)c1cnc(-c2ccc(Br)cc2)n(-c2ccccc2)c1=O [Compound 70]
7. O=C1CCCC(O)=C1C(=O)c1cnc(-c2ccccc2)n(C2CC2)c1=O [Compound 90]

Output:
98
95
98
98
98
98
95

Working through the 2 molecules below one at a time, give Lambsquarters plant response rating (0 to 100 scale) for each.
1. CCCCCCn1c(-c2ccccc2)ncc(C(=O)C2=C(O)CCCC2=O)c1=O [Compound 94]
2. O=C1CCCC(O)=C1C(=O)c1cnc(-c2ccccc2)n(C2CCCCCC2)c1=O [Compound 130]

Output:
[95, 100]

###

# System: barnyardgrass (Echinochloa crus-galli)
# assay summary: Test D pre-/postemergence plant response
# Format: in vivo
# details: Postemergence; 62 g ai/ha; scale 0 to 100 (0 no effect, 100 complete control)
Please go through the items and note down their Plant response rating, Barnyardgrass.
Answers are plain numbers.

molecule	target system	parameter measured	measured number
Cc1ccc(Cl)cc1-n1c(-c2ccccc2)ncc(C(=O)C2=C(O)CCCC2=O)c1=O [Compound 52]	barnyardgrass (Echinochloa crus-galli)	Plant response rating, Barnyardgrass	75

// for each molecule below, give its Plant response rating, Barnyardgrass
1. Cc1c(F)cccc1-n1c(-c2ccccc2)ncc(C(=O)C2=C(O)CCCC2=O)c1=O [Compound 47]
2. Cc1ccc(F)c(-n2c(-c3ccccc3)ncc(C(=O)C3=C(O)CCCC3=O)c2=O)c1 [Compound 51]
3. CCCCn1c(-c2ccccc2)ncc(C(=O)C2=C(O)C3CCC(C3)C2=O)c1=O (centres unmarked) [Compound 240]
4. CCCn1c(-c2ccccc2)ncc(C(=O)C2=C(O)C3CCC(C3)C2=O)c1=O (centres unmarked) [Compound 226]

Output:
70
70
95
85

###

# Test system: rice (Oryza sativa)
# assay summary: Test B flooded paddy test
# Assay type: in vivo
# details: Flood (flooded paddy test), 62 g ai/ha; scale of 0 to 100 where 0 is no effect and 100 is complete control; 13 to 15 days
# Description: Plant species in the flooded paddy test consisted of rice (Oryza sativa), umbrella sedge (Cyperus difformis), ducksalad (Heteranthera limosa) and barnyardgrass (Echinochloa crus-galli) grown to the 2-leaf stage for testing. […] Treated plants and controls were maintained in a greenhouse for 13 to 15 days, after which time all treated plants were visually evaluated and compared to controls. […]
Provide the reported Plant response rating, Rice of each item.
One number for each entry.

Some entries whose results are on file:
compound	Plant response rating, Rice
Cc1cccc(-n2c(-c3cccc(Cl)c3)ncc(C(=O)C3=C(O)CCCC3=O)c2=O)c1	15
CCCn1c(-c2ccco2)ncc(C(=O)C2=C(O)C3CCC(C3)C2=O)c1=O (centres unmarked)	20
CCCn1c(-c2ccn(C)n2)ncc(C(=O)C2=C(O)CCCC2=O)c1=O	0
O=C1CCCC(O)=C1C(=O)c1cnc(-c2cccs2)n(-c2ccccc2)c1=O	0

The record that follows has no Plant response rating, Rice shown yet.
Just so you know, measured Plant response rating, Rice for COc1ccc(-n2c(-c3cccc(C)c3)ncc(C(=O)C3=C(O)CCCC3=O)c2=O)cc1 came out at 0

###

# System: morningglory (Ipomoea coccinea)
# assay summary: Test B pre-/postemergence plant response
# Format: in vivo
# details: Postemergence, 125 g ai/ha; visual rating after 13 to 15 days, scale 0 (no effect) to 100 (complete control)
parameter measured: Plant response rating, Morningglory
Numbers only.

Solved entries (count: 5):
compound	target system	parameter measured	measured number
Cc1ccc(C)c(-n2c(-c3ccccc3)ncc(C(=O)C3=C(O)CCCC3=O)c2=O)c1 [Compound 29]	morningglory (Ipomoea coccinea)	Plant response rating, Morningglory	80
CCn1c(-c2ccccc2)ncc(C(=O)C2=C(O)CCCC2=O)c1=O [Compound 49]	morningglory (Ipomoea coccinea)	Plant response rating, Morningglory	80
Cc1cc(F)ccc1-n1c(-c2ccccc2)ncc(C(=O)C2=C(O)CCCC2=O)c1=O [Compound 48]	morningglory (Ipomoea coccinea)	Plant response rating, Morningglory	80
Cc1ccc(Cl)cc1-n1c(-c2ccccc2)ncc(C(=O)C2=C(O)CCCC2=O)c1=O [Compound 52]	morningglory (Ipomoea coccinea)	Plant response rating, Morningglory	75
Cc1cccc(-n2c(-c3cccc(Cl)c3)ncc(C(=O)C3=C(O)CCCC3=O)c2=O)c1 [Compound 45]	morningglory (Ipomoea coccinea)	Plant response rating, Morningglory	80

Give Plant response rating, Morningglory for each listed item.
1. O=C1CCCC([O-])=C1C(=O)c1cnc(-c2ccccc2)n(-c2ccccc2)c1=O.[K+] [Compound 14]
2. O=C1CCCC(O)=C1C(=O)c1cnc(-c2ccccc2)n(-c2ccc(F)cc2)c1=O [Compound 24]

Output:
1. 80
2. 60
